System: primary human blood monocytes (hPBMC)
procedure text: TNF-alpha induction in primary human blood monocytes (hPBMC)
Type: cell-based
measurement context: second word of the cell IFN-α/TNF-α Induction (Yes/No)
Experimental: siRNAs were tested for activation of the immune system in primary human blood monocytes (hPBMC). […] However, chemically modified versions of this sequence (AD-1a2, AD-1a3, AD-1a5, and AD-1a4) as well as AD-2a1 were negative for both IFN-alpha and TNF-alpha induction in these same assays (see Table 5, and FIGS. 13A and 13B). Thus chemical modifications are capable of dampening both IFN-alpha and TNF-alpha responses to siRNA molecules.
In the oligonucleotide strings, read from the 5' end, every base follows the letter of its sugar. An asterisk marks phosphorothioate; unmarked linkages are phosphodiester. Other units and linkages are bracketed, terminal groups are in braces. A string of capitals states the bases alone. d = 2'-deoxy (DNA); m = 2'-O-methyl; r = 2'-OH (RNA); {P} = phosphate; f = 2'-fluoro
metric name: TNF-α Induction

>  <substance>
AD-9680: dsRNA targeting the PCSK9 gene at 3530-3548; sense SEQ ID NO:1227, antisense SEQ ID NO:1228 (sense mUmUmCmUrArGrAmCmCmUrGmUmUmUmUrGmCmUmUdT*dT; antisense rArArGmCrArArArAmCrArGrGrUrCmUrArGrArAdT*dT)

>  <tested target>
primary human blood monocytes (hPBMC)

>  <value>
No/No

$$$$
>  <substance>
AD-1a3: modified dsRNA, AD-1a2 core sequence, Alt 2′ F, 2′ OMe both strands; SEQ ID NO:1509/1510 (chain 1 GCCUGGAGUUUAUUCGGAATT; chain 2 {P}-mUfUmCfCmGfAmAfUmAfAmAfCmUfCmCfAmGfGmCdT*dT; chain 1: sugars from the 5' end fmfmfmfmfmfmfmfmfmfdd, backbone not given here)

>  <tested target>
primary human blood monocytes (hPBMC)

>  <value>
No/No

$$$$

---

Items are presented alongside their recorded Mean percent remaining mRNA transcript at siRNA concentration/in cell type 3 nM/HepG2.
Tested on: PCSK9 mRNA
procedure text: PCSK9 siRNA screening in HepG2 cells (lipofectamine 2000 transfection, PCSK9 mRNA by Quantigene, normalized to GAP-DH)
Type: cell-based, human
measurement context: 3 nM siRNA
In the oligonucleotide strings, read from the 5' end, every base follows the letter of its sugar. An asterisk marks phosphorothioate; unmarked linkages are phosphodiester. Other units and linkages are bracketed, terminal groups are in braces. A string of capitals states the bases alone. d = 2'-deoxy (DNA); m = 2'-O-methyl; r = 2'-OH (RNA)
metric name: Mean percent remaining mRNA transcript at siRNA concentration/in cell type 3 nM/HepG2

>  <substance>
AD-9577: PCSK9 siRNA (sense rCrArCrCrArArGrGrArGrGrCrArGrGrArUrUrCdT*dT; antisense rGrArArUrCrCrUrGrCrCrUrCrCrUrUrGrGrUrGdT*dT)

>  <tested target>
PCSK9 mRNA

>  <value>
31%

$$$$
>  <substance>
AD-9314: unmodified parental PCSK9 siRNA, SEQ ID NO:1503/1504 (chain 1 rGrCrCrUrGrGrArGrUrUrUrArUrUrCrGrGrArAdT*dT; chain 2 rUrUrCrCrGrArArUrArArArCrUrCrCrArGrGrCdT*dT)

>  <tested target>
PCSK9 mRNA

>  <value>
22%

$$$$
>  <substance>
AD-9636: PCSK9 siRNA (sense rCrArUrArCrArGrArGrUrGrArCrCrArCrCrGrGdT*dT; antisense rCrCrGrGrUrGrGrUrCrArCrUrCrUrGrUrArUrGdT*dT)

>  <tested target>
PCSK9 mRNA

>  <value>
41%

$$$$
>  <substance>
AD-9554: PCSK9 siRNA (sense rUrUrCrUrArGrArCrCrUrGrUrUrUrUrGrCrUrUdT*dT; antisense rArArGrCrArArArArCrArGrGrUrCrUrArGrArAdT*dT)

>  <tested target>
PCSK9 mRNA

>  <value>
24%

$$$$
>  <substance>
AD-9595: PCSK9 siRNA (sense rCrUrGrArGrGrArCrCrArGrCrGrGrGrUrArCrUdT*dT; antisense rArGrUrArCrCrCrGrCrUrGrGrUrCrCrUrCrArGdT*dT)

>  <tested target>
PCSK9 mRNA

>  <value>
32%

$$$$
>  <substance>
AD-9697: PCSK9 siRNA (sense rGmCmCrArGrGmUrGmCmUrGmCmCmUrGmCmUrAmCdT*dT; antisense rGmUrArGmCrArGrGmCrArGmCrArCrCrUrGrGrCdT*dT)

>  <tested target>
PCSK9 mRNA

>  <value>
89%

$$$$
>  <substance>
AD-9731: PCSK9 siRNA (sense mUrGrGmUrGrArArGrAmUrGrArGmUrGrGmCrGrAdT*dT; antisense rUrCrGrCmCrArCrUmCrArUrCrUrUmCrArCmCrAdT*dT)

>  <tested target>
PCSK9 mRNA

>  <value>
31%

$$$$
>  <substance>
AD-9605: PCSK9 siRNA (sense rUrGrGrUrGrArArGrArUrGrArGrUrGrGrCrGrAdT*dT; antisense rUrCrGrCrCrArCrUrCrArUrCrUrUrCrArCrCrAdT*dT)

>  <tested target>
PCSK9 mRNA

>  <value>
31%

$$$$
>  <substance>
AD-9688: PCSK9 siRNA (sense mUmCmUmCmCmUrArGrAmCrAmCmCrArGmCrAmUrAdT*dT; antisense mUrArUrGrCrUrGrGrUrGrUrCmUrArGrGrArGrAdT*dT)

>  <tested target>
PCSK9 mRNA

>  <value>
34%

$$$$
>  <substance>
AD-9646: PCSK9 siRNA (sense mCmUrGrGmUrGmCmUrArGmCmCmUmUrGmCrGmUmUdT*dT; antisense rArArCrGmCrArArGrGrCmUrArGmCrArCmCrArGdT*dT)

>  <tested target>
PCSK9 mRNA

>  <value>
108%

$$$$

---

Tested on: PCSK9 mRNA
procedure text: In vitro screening of modified dsRNAs targeted to PCSK9 (Table 2b; cell type not given)
Type: cell-based
measurement context: 30 nM siRNA
In the oligonucleotide strings, read from the 5' end, every base follows the letter of its sugar. An asterisk marks phosphorothioate; unmarked linkages are phosphodiester. Other units and linkages are bracketed, terminal groups are in braces. A string of capitals states the bases alone. d = 2'-deoxy (DNA); m = 2'-O-methyl; r = 2'-OH (RNA); {P} = phosphate; f = 2'-fluoro
Overview of reported Remaining mRNA in % of controls at siRNA conc. of 30 nM across a group of substances:
metric name: Remaining mRNA in % of controls at siRNA conc. of 30 nM

>  <substance>
AD-10796: modified dsRNA, SEQ ID NO:1309/1310 (chain 1 rGmCmCmUrGrGrArGmUmUmUrAmUmUmCrGrGrArAdT*dT; chain 2 rUrUrCrCrGrArArUrArArArCrUrCrCrArGrGrCdT*dT)

>  <value>
13%

$$$$
>  <substance>
AD-12398: modified dsRNA, SEQ ID NO:1491/1492 (chain 1 fGmCfCmUfGmGfAmGfUmUfUmAfUmUfCmGfGmAfAdT*dT; chain 2 {P}-fUfUfCfCrGrArAfUrArArAfCfUfCfCrArGrGfC*fC*fU)

>  <value>
11%

$$$$

---

Test system: PCSK9 mRNA
procedure text: In vitro screening of modified dsRNAs targeted to PCSK9 (Table 2b; cell type not given)
Format: cell-based
measurement context: 30 nM siRNA
In the oligonucleotide strings, read from the 5' end, every base follows the letter of its sugar. An asterisk marks phosphorothioate; unmarked linkages are phosphodiester. Other units and linkages are bracketed, terminal groups are in braces. A string of capitals states the bases alone. [Ab] = 3'-terminal abasic nucleotide; e = 2'-O-(2-methoxyethyl) (MOE); d = 2'-deoxy (DNA); m = 2'-O-methyl; r = 2'-OH (RNA); f = 2'-fluoro
metric name: Remaining mRNA in % of controls at siRNA conc. of 30 nM

>  <substance>
AD-12362: modified dsRNA, SEQ ID NO:1421/1422 (chain 1 GCCUGGAGUUUAUUCGGAA; chain 2 mUrUmCrCrGrArAmUrArArArCrUmCmCrArGrGrCdT*dT; chain 1: sugars from the 5' end rererererererererer, all phosphodiester, methylation of C and T or U not given here)

>  <value>
51%

$$$$
>  <substance>
AD-12051: modified dsRNA, SEQ ID NO:1337/1338 (chain 1 rGmCmCmUrGrGrArGmUmUmUrAmUmUmCrGrGrArArAdTdT[Ab]; chain 2 rUrUrUrCrCrGrArAmUrArArArCrUrCrCrArGrGrCdTdT[Ab])

>  <value>
31%

$$$$
>  <substance>
AD-12044: modified dsRNA, SEQ ID NO:1323/1324 (chain 1 rGrCrCrUrGrGrArGrUrUrUrArUrUrCrGrGrArAdT*dT; chain 2 rUrUmCrCrGrArArUrArArArCrUrCrCrArGrGrCdT*dT)

>  <value>
7%

$$$$
>  <substance>
AD-12354: modified dsRNA, SEQ ID NO:1405/1406 (chain 1 fGmCfCmUfGmGfAmGfUmUfUmAfUmUfCmGfGmAfA; chain 2 rUrUrCrCrGrArArUrArArArCrUrCrCrArGrGrC*mC*mU)

>  <value>
11%

$$$$
>  <substance>
AD-12393: modified dsRNA, SEQ ID NO:1481/1482 (chain 1 rGfCfCfUrGrGrArGrGfUfUfUrAfUfUfCrGrGrArA; chain 2 rUrUrCrCrGrArAmUrArArArCrUrCmCrArGrGrCdT*dT)

>  <value>
17%

$$$$
>  <substance>
AD-12387: modified dsRNA, SEQ ID NO:1469/1470 (chain 1 rGfCfCfUrGrGrArGrGfUfUfUrAfUfUfCrGrGrArA; chain 2 fUfUfCfCrGrArAfUrArArAfCfUfCfCrArGrGfC*fC*fU)

>  <value>
13%

$$$$
>  <substance>
AD-12356: modified dsRNA, SEQ ID NO:1409/1410 (chain 1 fGmCfCmUfGmGfAmGfUmUfUmAfUmUfCmGfGmAfA; chain 2 mUrUmCrCrGrArAmUrArArArCrUmCmCrArGrGrCdT*dT)

>  <value>
25%

$$$$
>  <substance>
AD-12060: modified dsRNA, SEQ ID NO:1355/1356 (chain 1 rGmCrCmUrGmGrAmGrUmUrUmArUmUrCmGrGmArA; chain 2 rUrUrCrCrGmAmArUrAmAmArCrUrCrCrAmGmGmC)

>  <value>
10%

$$$$
>  <substance>
AD-12067: modified dsRNA, SEQ ID NO:1369/1370 (chain 1 GCCUGGNAGUUUAUUCGGAATT; chain 2 rUrUrCrCrGrArArUrArArArCrUrCrCrArGrGrCdT*dT; chain 1: chemistry not given here)

>  <value>
17%

$$$$
>  <substance>
AD-12390: modified dsRNA, SEQ ID NO:1475/1476 (chain 1 rGfCfCfUrGrGrArGrGfUfUfUrAfUfUfCrGrGrArA; chain 2 rUrUrCrCrGrArArUrArArArCrUrCrCrArGrGrC*mC*mU)

>  <value>
17%

$$$$
